Tested on: Jak2 (UniProt O60674)
Sequence (O60674 whole entry, looked up): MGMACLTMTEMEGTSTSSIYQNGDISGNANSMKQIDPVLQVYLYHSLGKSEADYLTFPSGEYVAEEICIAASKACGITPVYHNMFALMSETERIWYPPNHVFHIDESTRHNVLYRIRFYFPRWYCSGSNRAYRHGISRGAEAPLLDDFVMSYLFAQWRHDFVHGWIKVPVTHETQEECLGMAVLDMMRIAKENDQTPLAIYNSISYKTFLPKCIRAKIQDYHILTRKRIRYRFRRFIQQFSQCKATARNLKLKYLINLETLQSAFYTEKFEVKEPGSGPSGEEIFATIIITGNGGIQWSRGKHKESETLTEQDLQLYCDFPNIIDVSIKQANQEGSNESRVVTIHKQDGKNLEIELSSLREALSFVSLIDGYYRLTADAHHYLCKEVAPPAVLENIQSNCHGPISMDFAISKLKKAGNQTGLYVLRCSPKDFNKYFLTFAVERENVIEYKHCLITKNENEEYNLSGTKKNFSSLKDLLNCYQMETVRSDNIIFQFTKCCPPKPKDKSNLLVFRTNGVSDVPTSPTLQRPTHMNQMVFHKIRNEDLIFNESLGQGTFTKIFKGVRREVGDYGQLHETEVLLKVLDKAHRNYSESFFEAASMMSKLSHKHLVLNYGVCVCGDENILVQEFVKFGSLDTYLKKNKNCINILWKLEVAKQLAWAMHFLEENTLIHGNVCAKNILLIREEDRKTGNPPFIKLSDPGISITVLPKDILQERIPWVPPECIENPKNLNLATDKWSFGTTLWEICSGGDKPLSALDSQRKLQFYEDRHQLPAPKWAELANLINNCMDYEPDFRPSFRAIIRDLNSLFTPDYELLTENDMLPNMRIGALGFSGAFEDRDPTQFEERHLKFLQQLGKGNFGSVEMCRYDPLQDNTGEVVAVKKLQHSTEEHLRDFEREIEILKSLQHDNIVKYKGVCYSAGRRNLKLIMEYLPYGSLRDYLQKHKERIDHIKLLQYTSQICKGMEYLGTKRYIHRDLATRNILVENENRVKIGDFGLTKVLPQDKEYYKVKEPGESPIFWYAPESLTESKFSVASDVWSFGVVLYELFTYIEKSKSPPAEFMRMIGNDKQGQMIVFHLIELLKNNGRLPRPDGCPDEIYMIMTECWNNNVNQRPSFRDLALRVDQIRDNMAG
Method: phosphorylation enrichment, bacterial display (enrichment ratio); higher = better substrate or ligand; peptides without Tyr show the background;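 further: 11-residue human phosphosite peptides and single-mutation variants displayed on the E. coli surface, counted by deep sequencing, each peptide's frequency after selection divided by its frequency in the unselected input library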;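 further: frequency after pTyr selection over input frequency; kinase dosed for 20-30% of maximal phosphorylation in three min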
Binary classification by phosphorylation enrichment, with 1 as an inclusive lower bound for YES; all other cases are NO.

Use the examples below as a reference point.
Macromolecule sequence	Group
GQDLLYEDEDL [PACS1_Y303_F302L]	YES
ESSKAYERALS [TTC37_Y1074]	NO
LERFIYNREEF [HLA-DPB1_Y59_F64Y_YF]	YES
EESSHYSTEKE [ADAR_Y587]	NO
TDKLFYIYTSG [SLC27A4_Y243]	YES

Query: Confirm if phosphorylation enrichment reported for the sequence VSRGRYRPEEC [B4GALT4_Y113_Q116E] is 1 or above.
Result: NO

Query: Confirm if phosphorylation enrichment reported for the sequence GMSQAYSSSQR [DES_Y5] is 1 or above.
Result: NO

Query: Confirm if phosphorylation enrichment reported for the sequence FPDFVYKRIKA [DPYSL2_Y479] is 1 or above.
Result: NO

---

Here the recorded phosphorylation enrichment is given for each entry.
Tested on: Fyn (UniProt P06241)
Sequence (P06241 whole entry, looked up): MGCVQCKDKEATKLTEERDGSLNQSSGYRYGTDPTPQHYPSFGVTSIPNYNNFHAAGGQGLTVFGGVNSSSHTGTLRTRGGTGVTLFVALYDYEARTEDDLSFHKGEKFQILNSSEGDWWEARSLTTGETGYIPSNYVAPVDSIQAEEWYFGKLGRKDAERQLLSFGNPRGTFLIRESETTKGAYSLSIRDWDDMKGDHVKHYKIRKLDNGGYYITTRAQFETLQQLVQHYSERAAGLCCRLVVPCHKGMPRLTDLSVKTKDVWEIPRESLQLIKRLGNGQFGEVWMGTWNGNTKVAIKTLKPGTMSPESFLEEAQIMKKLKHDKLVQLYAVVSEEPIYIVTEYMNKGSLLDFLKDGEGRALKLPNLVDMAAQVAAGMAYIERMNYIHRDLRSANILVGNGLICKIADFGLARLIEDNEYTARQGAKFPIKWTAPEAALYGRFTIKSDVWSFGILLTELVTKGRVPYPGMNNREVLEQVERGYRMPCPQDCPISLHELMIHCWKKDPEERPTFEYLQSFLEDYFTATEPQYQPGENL
Method: phosphorylation enrichment, bacterial display (enrichment ratio); higher = better substrate or ligand; peptides without Tyr show the background

Macromolecule sequence	phosphorylation enrichment
SKAYAYVHFDS [PABPC5_Y149_G146A]	0.394
LSDVIYVILRK [PMP22_Y153_G150D]	0.414
EQQNMYRLKVL [ABCC6_Y372]	0.41
REVVNYVQKRN [RMI1_Y450]	0.541

As a next step, examine the sequence that follows.
Query: Assign phosphorylation enrichment to the following record: DVAKEYGHLLP [HRC_Y99_S96A]
Result: 0.422

---

Here the recorded phosphorylation enrichment is given for each entry.
Tested on: EPHB1 (UniProt P54762)
Sequence (P54762 whole entry, looked up): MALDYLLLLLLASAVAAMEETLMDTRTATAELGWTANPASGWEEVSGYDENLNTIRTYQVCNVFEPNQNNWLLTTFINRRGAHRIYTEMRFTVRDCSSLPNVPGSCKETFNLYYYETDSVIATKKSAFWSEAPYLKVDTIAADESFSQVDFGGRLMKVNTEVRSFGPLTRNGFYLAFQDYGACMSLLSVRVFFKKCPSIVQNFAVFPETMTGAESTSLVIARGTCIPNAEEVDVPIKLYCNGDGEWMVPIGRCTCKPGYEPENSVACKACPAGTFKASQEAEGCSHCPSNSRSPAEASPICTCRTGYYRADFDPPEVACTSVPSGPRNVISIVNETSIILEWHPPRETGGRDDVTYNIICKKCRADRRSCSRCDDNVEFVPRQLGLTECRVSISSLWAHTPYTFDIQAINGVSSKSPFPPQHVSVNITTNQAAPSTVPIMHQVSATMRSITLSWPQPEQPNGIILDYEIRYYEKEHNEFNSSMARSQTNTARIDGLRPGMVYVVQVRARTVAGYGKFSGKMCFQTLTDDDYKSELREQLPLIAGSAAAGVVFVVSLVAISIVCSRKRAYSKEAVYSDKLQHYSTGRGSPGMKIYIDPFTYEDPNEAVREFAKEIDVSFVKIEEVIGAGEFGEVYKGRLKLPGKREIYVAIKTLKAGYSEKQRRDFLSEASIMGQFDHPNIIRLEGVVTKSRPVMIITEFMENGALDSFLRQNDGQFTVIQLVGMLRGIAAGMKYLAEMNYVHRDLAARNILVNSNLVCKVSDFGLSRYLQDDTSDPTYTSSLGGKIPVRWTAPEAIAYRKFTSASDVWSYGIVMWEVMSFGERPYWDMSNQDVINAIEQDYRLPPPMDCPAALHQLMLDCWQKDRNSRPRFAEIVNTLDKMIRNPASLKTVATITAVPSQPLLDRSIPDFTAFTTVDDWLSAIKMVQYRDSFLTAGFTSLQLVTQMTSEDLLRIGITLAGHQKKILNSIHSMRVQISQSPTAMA
Method: phosphorylation enrichment, bacterial display (enrichment ratio); higher = better substrate or ligand; peptides without Tyr show the background

Would you please look over these solved cases?
Macromolecule sequence	Tested on	Endpoint result
GGDQPYSGAGD [TYRO3_Y828_R824G]	EPHB1 (UniProt P54762)	0.501
EKQARYEIVVE [CDH5_Y223]	EPHB1 (UniProt P54762)	0.65
TLSGIYQFIIA [FOXL2_Y81_YF]	EPHB1 (UniProt P54762)	14.2

Query: Assign phosphorylation enrichment to the following record: DLFRLYICVKE [ARID1B_Y1091_V1092I]
Result: 0.741

Query: Assign phosphorylation enrichment to the following record: KKHIPYKEHKS [CSNK1G1_Y205_R206K]
Result: 1.15

Query: Assign phosphorylation enrichment to the following record: AFPGEYIPTVF [RAC1_Y32]
Result: 0.444

Query: Assign phosphorylation enrichment to the following record: VAVVQYSGTGQ [COL6A1_Y878]
Result: 0.479

Query: Assign phosphorylation enrichment to the following record: NNIDFYKNTTN [FGFR2_Y657_K659N_YF]
Result: 0.484

Query: Assign phosphorylation enrichment to the following record: FSSLGYPPPEG [ZSWIM4_Y87_YF]
Result: 0.418

---

Tested on: EPHB2 (UniProt P29323)
Sequence (P29323 whole entry, looked up): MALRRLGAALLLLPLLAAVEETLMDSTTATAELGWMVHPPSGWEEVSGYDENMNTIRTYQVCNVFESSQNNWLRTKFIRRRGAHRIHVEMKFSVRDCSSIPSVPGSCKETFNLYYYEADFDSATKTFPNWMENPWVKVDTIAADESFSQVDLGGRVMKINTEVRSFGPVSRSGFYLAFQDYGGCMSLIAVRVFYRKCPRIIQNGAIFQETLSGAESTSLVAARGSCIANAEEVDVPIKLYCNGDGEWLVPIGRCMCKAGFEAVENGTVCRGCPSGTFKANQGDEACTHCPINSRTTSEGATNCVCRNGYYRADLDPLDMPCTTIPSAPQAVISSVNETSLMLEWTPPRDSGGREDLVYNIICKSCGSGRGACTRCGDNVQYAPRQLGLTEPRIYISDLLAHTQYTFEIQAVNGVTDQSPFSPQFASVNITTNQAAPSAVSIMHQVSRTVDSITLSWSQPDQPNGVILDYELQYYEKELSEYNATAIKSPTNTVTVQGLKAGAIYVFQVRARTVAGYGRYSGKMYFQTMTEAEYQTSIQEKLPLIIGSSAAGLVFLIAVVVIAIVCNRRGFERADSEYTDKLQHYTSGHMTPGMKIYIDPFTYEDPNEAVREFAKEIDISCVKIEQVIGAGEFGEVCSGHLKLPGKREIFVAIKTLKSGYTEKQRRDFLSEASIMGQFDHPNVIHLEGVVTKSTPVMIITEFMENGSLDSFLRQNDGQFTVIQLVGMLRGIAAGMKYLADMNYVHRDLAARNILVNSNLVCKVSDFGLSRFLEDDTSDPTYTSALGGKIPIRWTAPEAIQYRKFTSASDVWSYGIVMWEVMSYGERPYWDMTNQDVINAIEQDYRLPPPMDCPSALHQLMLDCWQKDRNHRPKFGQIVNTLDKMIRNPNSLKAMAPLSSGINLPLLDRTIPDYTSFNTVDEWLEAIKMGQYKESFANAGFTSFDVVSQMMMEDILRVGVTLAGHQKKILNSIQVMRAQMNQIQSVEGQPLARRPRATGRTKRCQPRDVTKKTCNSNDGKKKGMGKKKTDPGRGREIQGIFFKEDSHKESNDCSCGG
Method: phosphorylation enrichment, bacterial display (enrichment ratio); higher = better substrate or ligand; peptides without Tyr show the background
Binary classification by phosphorylation enrichment, with 0.5 as an inclusive lower bound for Condition met; all other cases are Condition not met.

Macromolecule sequence	Group
AIFEGYALPHA [ACTC1_Y171_P166A_YF]	Condition not met
ANNEYYFQVCA	Condition met
EEKKKYFDAKI [CASP5_Y103_T106A_YF]	Condition not met
KLFFHYNPKLC [INSR_Y457]	Condition met
LRWREYQRQDF [PRKRIP1_Y90_R87W_YF]	Condition met
LIQRNYKLAAQ [ALPK2_Y1975]	Condition met

Query: Confirm if phosphorylation enrichment reported for the sequence ITRDIYETDFF [INSR_Y1185_M1180I_YF] is 0.5 or above.
Result: Condition met

---

Tested on: Fes (UniProt P07332)
Sequence (P07332 whole entry, looked up): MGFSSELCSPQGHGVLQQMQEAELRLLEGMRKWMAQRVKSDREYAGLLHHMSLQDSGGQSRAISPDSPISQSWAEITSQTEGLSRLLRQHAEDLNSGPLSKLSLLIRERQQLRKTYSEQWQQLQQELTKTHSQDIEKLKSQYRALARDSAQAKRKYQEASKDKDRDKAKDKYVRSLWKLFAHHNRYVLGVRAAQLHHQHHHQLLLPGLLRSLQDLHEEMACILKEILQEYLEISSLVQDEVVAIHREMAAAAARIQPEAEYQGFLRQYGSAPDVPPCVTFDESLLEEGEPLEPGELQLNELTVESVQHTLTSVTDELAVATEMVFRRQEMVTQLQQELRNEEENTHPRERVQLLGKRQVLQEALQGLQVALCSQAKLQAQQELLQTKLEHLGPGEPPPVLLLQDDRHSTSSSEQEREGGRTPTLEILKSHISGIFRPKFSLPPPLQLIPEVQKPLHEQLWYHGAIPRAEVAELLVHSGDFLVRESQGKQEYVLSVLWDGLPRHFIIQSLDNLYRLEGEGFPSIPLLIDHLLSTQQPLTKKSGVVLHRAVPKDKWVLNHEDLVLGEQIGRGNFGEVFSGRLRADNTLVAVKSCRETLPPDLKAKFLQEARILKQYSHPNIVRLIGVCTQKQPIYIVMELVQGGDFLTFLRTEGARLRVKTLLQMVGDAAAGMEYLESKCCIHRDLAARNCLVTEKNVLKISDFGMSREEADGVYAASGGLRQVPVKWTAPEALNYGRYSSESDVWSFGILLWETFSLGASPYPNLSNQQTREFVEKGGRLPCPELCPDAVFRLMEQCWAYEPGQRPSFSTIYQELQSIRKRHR
Method: phosphorylation enrichment, bacterial display (enrichment ratio); higher = better substrate or ligand; peptides without Tyr show the background
Measured metric: phosphorylation enrichment
Number, no unit, nothing else.

Macromolecule sequence	phosphorylation enrichment
LSQDVYEEDSY [RET_Y900_R897Q]	1.71
EKKDIYKAGEQ [CFH_Y1008_V1007I]	0.696
QFLMKYVWSAS [ABCD1_Y337]	1.49
ITLPIYTKGSE [ANK2_Y1455_E1458G]	0.759
PEFVVYKPQME [CCRL2_Y170]	1.82

Query: Lab note: Fes (UniProt P07332) assay, enter phosphorylation enrichment for FLNSIYKSRDE [ROS1_Y2227] here
Result: 0.642

Query: Lab note: Fes (UniProt P07332) assay, enter phosphorylation enrichment for KSPDSYQKILL [ATM_Y1415] here
Result: 0.801

---

Tested on: MERTK (UniProt Q12866)
Method: phosphorylation enrichment, bacterial display (enrichment ratio); higher = better substrate or ligand; peptides without Tyr show the background
Binary classification by phosphorylation enrichment, with 0.4 as an inclusive lower bound for fulfilled; all other cases are not fulfilled.

Use the examples below as a reference point.
Macromolecule sequence	Group
PLEGEYFTLQI [TP53_Y327_D324E]	fulfilled
GEVKAYGAGLL [TH_Y419]	not fulfilled

Now consider a different sequence.
Query: Confirm if phosphorylation enrichment reported for the sequence FFLGAYDRFLP [SLC22A5_Y486_V481F_YF] is 0.4 or above.
Result: fulfilled

---

Tested on: MERTK (UniProt Q12866)
Method: phosphorylation enrichment, bacterial display (enrichment ratio); higher = better substrate or ligand; peptides without Tyr show the background
Here the recorded phosphorylation enrichment is given for each entry.
Number, no unit, nothing else.

Would you please look over these solved cases?
Macromolecule sequence	Endpoint result
DDPRTYQKFGF [OAS1_Y362_R361T_YF]	0.439
AGAKTYKMSMA [CPS1_Y309]	0.364
AFRHGYFDEEM [PLEC_Y2971_R2969H_YF]	0.478
MSDVPYVMNRG [ACAT1_Y161_N158D]	0.348
EEKKKYFDAKI [CASP5_Y103_T106A_YF]	0.501

Query: Lab note: MERTK (UniProt Q12866) assay, enter phosphorylation enrichment for KVKPIYFRTQG [AR_Y916_H918R] here
Result: 0.401

Query: Lab note: MERTK (UniProt Q12866) assay, enter phosphorylation enrichment for KFRREYILSLE [GPC3_Y299_W296R_YF] here
Result: 0.455

Query: Lab note: MERTK (UniProt Q12866) assay, enter phosphorylation enrichment for LSGFGYRLSDQ [PDCD6_Y124] here
Result: 0.474

Query: Lab note: MERTK (UniProt Q12866) assay, enter phosphorylation enrichment for FVTSMYNEILM [TRPV1_Y310] here
Result: 0.756

---

Tested on: EPHB2 (UniProt P29323)
Method: phosphorylation enrichment, bacterial display (enrichment ratio); higher = better substrate or ligand; peptides without Tyr show the background
Measured metric: phosphorylation enrichment
Number, no unit, nothing else.

Would you please look over these solved cases?
Macromolecule sequence	phosphorylation enrichment
RFLERYIFNRQ [HLA-DPB1_Y57_E62Q_YF]	0.29
TVINKYQGKLF [HGD_Y249]	0.436
EFTAGYNVKFD [GPX4_Y123_A120T]	0.474

Query: Assign phosphorylation enrichment to the following record: KPNMNYDKLSW [FLI1_Y332_R337W]
Result: 0.893

Query: Assign phosphorylation enrichment to the following record: RALCHYYKLNI [ETV6_Y401_R399C]
Result: 1.16

Query: Assign phosphorylation enrichment to the following record: TVQVAYFTMMM [SPATA17_Y83_YF]
Result: 0.667

Query: Assign phosphorylation enrichment to the following record: IDDNEYAYLKA [HNF4A_Y286]
Result: 0.601

Query: Assign phosphorylation enrichment to the following record: RKEAQYMLENE [SLC16A6_Y224]
Result: 0.523

Query: Assign phosphorylation enrichment to the following record: TQPSPYAVFRF [RPGRIP1_Y823_YF]
Result: 0.922

Query: Assign phosphorylation enrichment to the following record: CTTIHSNYMCN [TP53_Y234_Y234S]
Result: 0.563

Query: Assign phosphorylation enrichment to the following record: APQFTYAQGGQ [FLNA_Y1763_YF]
Result: 0.739

Query: Assign phosphorylation enrichment to the following record: REDIFYTSKLW [AKR1C2_Y81]
Result: 0.796

Query: Assign phosphorylation enrichment to the following record: QRKPSYNQLAS [BRCA2_Y71]
Result: 0.53

Query: Assign phosphorylation enrichment to the following record: VDDQIYFFRKP [PBRM1_Y1289_E1287Q_YF]
Result: 0.785

This collection of values is drawn from the supplement of paper PMC10065799.
